FYI, the data here is from patent US10584134B2.

# Target under test: human TRPM8 receptor (Homo sapiens (Human))
# Assay explanation: Assay on TRPM8 modulators (Ca2+-sensitive dye, HEK293-TRPM8 test cells, EC50 determination)
# Type: cell-based
# Test conditions: Table A, structure type 1; assay according to reference example 3
Readout kind: pEC50
Field pEC50 (float): negative decimal logarithm of the concentration in molar.

C[C@H]1OC(=O)C2=C1N1CCc3ccccc3C1CC21SCCCS1 (stereo partly drawn) [Compound 1-6]; 6.70

# context switch: different molecule, same pEC50
Q) What pEC50 appears in the records for this molecule with human TRPM8 receptor (Homo sapiens (Human))? CC1(C)CC(=O)C2=C(C1)N1CCc3ccccc3C1CC21[S+]([O-])CCS1(=O)=O (stereo not drawn) [Compound 1-8]
A) 5.01

---

# Target under test: human TRPM8 receptor (Homo sapiens (Human))
# Assay explanation: Assay on TRPM8 modulators (Ca2+-sensitive dye, HEK293-TRPM8 test cells, EC50 determination)
# Type: cell-based
# Test conditions: Table B, structure type 2; assay according to reference example 3
The following compounds are shown together with reported EC50 values.
Respond numerically; units are nM and should not be typed.

Sample records with EC50:
COc1cnc(-c2ccccn2)nc1NC(C)CCO (stereo not shown) [Compound 2-9]; 1000
COc1cnc(-c2ccccn2)nc1NC(C)C [Compound 2-1]; 100
CC[C@@H](C)Nc1nc(-c2ccccn2)ncc1OC (stereo in doubt) [Compound 2-5]; 100
COc1cnc(-c2ccccn2)nc1NC(C)C [Compound 2-15]; 800
COc1cnc(-c2ccccn2)nc1NC(C)C [Compound 2-19]; 300
CCc1cnc(-c2ccccn2)nc1NC(C)C [Compound 2-14]; 400

Q) Find the recorded EC50 belonging to COCC(C)Nc1nc(-c2ccccn2)ncc1OC (stereo not shown) [Compound 2-10] and report it.
A) 2200

Q) Find the recorded EC50 belonging to COc1cnc(-c2ccccn2)nc1NC(C)C [Compound 2-17] and report it.
A) 400

Q) Find the recorded EC50 belonging to COc1cnc(-c2ccccn2)nc1NC(C)C [Compound 2-18] and report it.
A) 500

Q) Find the recorded EC50 belonging to COc1cnc(-c2ccccn2)nc1NCC1CC1 [Compound 2-11] and report it.
A) 1200

Q) Find the recorded EC50 belonging to COc1cnc(-c2ccccn2)nc1NC(C)C [Compound 2-16] and report it.
A) 1600

Q) Find the recorded EC50 belonging to COc1cnc(-c2ccccn2)nc1N1CCOCC1 [Compound 2-4] and report it.
A) 1000

Q) Find the recorded EC50 belonging to COc1cnc(-c2ccccn2)nc1NC(C)C [Compound 2-22] and report it.
A) 700

---

# Target under test: human TRPM8 receptor (Homo sapiens (Human), UniProt Q7Z2W7)
# Sequence (Q7Z2W7 whole entry): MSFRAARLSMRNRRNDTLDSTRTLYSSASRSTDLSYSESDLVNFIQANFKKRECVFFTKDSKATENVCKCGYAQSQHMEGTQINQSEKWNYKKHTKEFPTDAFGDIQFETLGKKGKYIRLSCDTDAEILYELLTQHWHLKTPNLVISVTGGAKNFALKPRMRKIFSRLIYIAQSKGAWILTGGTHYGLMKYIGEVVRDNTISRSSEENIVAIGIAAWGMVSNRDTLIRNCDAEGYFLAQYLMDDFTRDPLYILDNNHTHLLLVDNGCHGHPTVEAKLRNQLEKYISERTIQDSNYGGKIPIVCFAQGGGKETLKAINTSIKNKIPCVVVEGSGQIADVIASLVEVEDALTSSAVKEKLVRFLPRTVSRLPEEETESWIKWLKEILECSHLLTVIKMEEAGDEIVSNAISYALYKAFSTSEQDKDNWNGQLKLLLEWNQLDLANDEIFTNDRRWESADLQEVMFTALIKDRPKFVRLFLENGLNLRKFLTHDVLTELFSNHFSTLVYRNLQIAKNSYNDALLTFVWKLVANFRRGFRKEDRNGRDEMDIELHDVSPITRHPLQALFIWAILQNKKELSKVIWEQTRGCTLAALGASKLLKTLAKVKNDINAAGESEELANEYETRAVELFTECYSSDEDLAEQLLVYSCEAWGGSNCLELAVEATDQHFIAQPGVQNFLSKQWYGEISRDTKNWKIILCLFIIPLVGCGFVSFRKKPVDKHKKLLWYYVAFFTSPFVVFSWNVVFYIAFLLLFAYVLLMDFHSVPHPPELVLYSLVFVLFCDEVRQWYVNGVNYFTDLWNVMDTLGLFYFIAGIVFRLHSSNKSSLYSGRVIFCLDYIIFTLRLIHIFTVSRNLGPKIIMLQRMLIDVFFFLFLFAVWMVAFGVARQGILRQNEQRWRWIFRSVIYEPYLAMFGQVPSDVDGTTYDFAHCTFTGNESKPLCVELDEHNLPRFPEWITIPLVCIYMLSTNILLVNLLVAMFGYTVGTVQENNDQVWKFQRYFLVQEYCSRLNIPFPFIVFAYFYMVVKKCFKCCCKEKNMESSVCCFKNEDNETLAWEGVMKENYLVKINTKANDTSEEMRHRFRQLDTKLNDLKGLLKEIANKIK
# Assay explanation: Assay on TRPM8 modulators (Ca2+-sensitive dye, HEK293-TRPM8 test cells, EC50 determination)
# Type: cell-based
# Test conditions: Table C, structure type 3; assay according to reference example 3
Checkbox rule: EC50 lower than 2000 nM = criterion met; EC50 not lower than 2000 nM = criterion not met.

CCN(C(=O)/C=C/c1ccc2c(c1)OCO2)c1ccccn1; criterion not met
COc1ccc(CCC(=O)N(c2ccccn2)C2CCCCC2)cc1; criterion not met

Q) Is EC50 of O=C(/C=C/c1ccccc1)N(Cc1ccccc1)c1ccccc1 strictly below 2000 nM?
A) criterion not met

Q) Is EC50 of CC(C)CN(C(=O)/C=C/c1ccc2c(c1)OCO2)c1ccc(Cl)cc1 strictly below 2000 nM?
A) criterion not met

Q) Is EC50 of O=C(/C=C/c1ccc2c(c1)OCO2)N(c1ccccc1)c1ccccc1 strictly below 2000 nM?
A) criterion met

Q) Is EC50 of CCCCN(C(=O)/C=C/c1ccc2c(c1)OCO2)c1ccccc1 strictly below 2000 nM?
A) criterion met

Q) Is EC50 of CCN(Cc1ccccc1)C(=O)/C=C/c1ccc2c(c1)OCO2 strictly below 2000 nM?
A) criterion met

Q) Is EC50 of O=C(/C=C/c1ccccc1)N(c1ccccc1)C1CCCCC1 [Compound 3-26, (E)-N-cyclohexyl-3,N-diphenyl-acrylamide] strictly below 2000 nM?
A) criterion met

Q) Is EC50 of COc1ccc(/C=C/C(=O)N(c2ccccc2)C2CCCCC2)cc1 strictly below 2000 nM?
A) criterion met

Q) Is EC50 of COc1ccc(/C=C/C(=O)N(C2CCCCC2)C2CCCCC2)cc1 strictly below 2000 nM?
A) criterion met

Q) Is EC50 of CCN(CC)C(=O)/C=C/c1ccc2c(c1)OCO2 strictly below 2000 nM?
A) criterion not met

Q) Is EC50 of CC(C1CC1)N(C(=O)/C=C/c1ccccc1)c1ccccc1 (stereo not shown) strictly below 2000 nM?
A) criterion met

Q) Is EC50 of Cc1ccccc1N(Cc1ccccc1)C(=O)Cc1ccccc1 strictly below 2000 nM?
A) criterion met

Q) Is EC50 of COc1ccc(/C=C/C(=O)N(c2ccccc2)C(C)C)cc1 strictly below 2000 nM?
A) criterion met

Q) Is EC50 of O=C(/C=C/c1ccccc1Cl)N(c1ccccn1)C1CCCCC1 strictly below 2000 nM?
A) criterion met

Q) Is EC50 of COc1cccc(/C=C/C(=O)N(c2ccccn2)C2CCCCC2)c1OC strictly below 2000 nM?
A) criterion met

Q) Is EC50 of O=C(/C=C/c1ccccc1)N(c1ccccn1)C1CCCCC1 strictly below 2000 nM?
A) criterion not met

Q) Is EC50 of COc1ccc(/C=C/C(=O)N(Cc2ccccc2)c2ccccc2)cc1 strictly below 2000 nM?
A) criterion not met

Q) Is EC50 of O=C(/C=C/c1ccc2c(c1)OCO2)N(Cc1ccccc1)c1ccccc1 strictly below 2000 nM?
A) criterion met

---

The following compounds are shown together with reported EC50 values.
# Target under test: human TRPM8 receptor (Homo sapiens (Human), UniProt Q7Z2W7)
# Assay explanation: Assay on TRPM8 modulators (Ca2+-sensitive dye, HEK293-TRPM8 test cells, EC50 determination)
# Type: cell-based
# Test conditions: Table C, structure type 3; assay according to reference example 3
Respond numerically; units are µM and should not be typed.

Sample records with EC50:
Cc1cccc(/C=C/C(=O)N(c2ccccn2)C2CCCCC2)c1; 0.3
COc1ccc(/C=C/C(=O)N(c2ccccn2)C2CCCCC2)cc1; 0.4
COc1cccc(/C=C/C(=O)N(c2ccccn2)C2CCCCC2)c1; 3
O=C(/C=C/c1ccccc1)N(c1ccccc1)c1ccccc1 [Compound 3-27, Cinammic acid-N,N-diphenylamide]; 2.9
Cc1ccc(/C=C/C(=O)N(c2ccccn2)C2CCCCC2)cc1; 0.3

Q) Find the recorded EC50 belonging to CCCN(C(=O)/C=C/c1ccc2c(c1)OCO2)c1ccccc1 and report it.
A) 1.1

Q) Find the recorded EC50 belonging to O=C(/C=C/c1ccc2c(c1)OCO2)N(c1ccccc1)C1CCCCC1 and report it.
A) 0.9

---

The following compounds are shown together with reported EC50 values.
# Target under test: human TRPM8 receptor (Homo sapiens (Human), UniProt Q7Z2W7)
# Assay explanation: Assay on TRPM8 modulators (Ca2+-sensitive dye, HEK293-TRPM8 test cells, EC50 determination)
# Assay type: cell-based
# Test conditions: Table C, structure type 3; assay according to reference example 3
Respond numerically; units are µM and should not be typed.

O=C(/C=C/c1ccc2c(c1)OCO2)N(c1ccccn1)C1CCCCC1; 0.1
COc1ccc(C(=O)N(c2ccccn2)C2CCCCC2)cc1; 10.9
O=C(/C=C/c1ccc2c(c1)OCO2)N(C1CCCCC1)C1CCCCC1; 11.8
Cc1ccc(/C=C/C(=O)N(c2ccccc2)c2ccccc2)cc1 [Compound 3-34, 4-methylcinammic acid-N,N-diphenylamide]; 4
COc1ccc(OCC(=O)N(c2ccccn2)C2CCCCC2)cc1; 4

Q) Find the recorded EC50 belonging to COc1ccc(/C=C/C(=O)N(c2ccccc2)c2ccccc2)cc1 [Compound 3-20, 4-methoxycinammic acid-N,N-diphenylamide] and report it.
A) 1.1

Q) Find the recorded EC50 belonging to CC(C)N(C(=O)/C=C/c1ccc2c(c1)OCO2)C1CCCCC1 and report it.
A) 0.2

Q) Find the recorded EC50 belonging to O=C(c1c(Cl)cccc1Cl)N(Cc1ccccc1)c1ccccn1 and report it.
A) 5.5

---

The following compounds are shown together with reported pEC50 values.
# Target under test: human TRPM8 receptor (Homo sapiens (Human), UniProt Q7Z2W7)
# Assay explanation: Assay on TRPM8 modulators (Ca2+-sensitive dye, HEK293-TRPM8 test cells, EC50 determination)
# Type: cell-based
# Test conditions: Table A, structure type 1; assay according to reference example 3
# Excerpt: As a test cell system the human TRPM8 DNA (see plasmid pInd-M8 above) was used to prepare a stable transfixed HEK293 cell line. […] The agonisation or antagonisation of the receptor can be quantified by means of a Ca^2+-sensitive dye (e.g. FURA, Fluo-4, etc.). […] The test substances are used in triplicate in concentrations of between 0.1 and 200 μm in the assay. Normally the compounds are kept ready in DMSO solutions and diluted for the assay to a maximum DMSO concentration of 2%.
Field pEC50 (float): negative decimal logarithm of the concentration in molar.

Sample records with pEC50:
C[C@H]1OC(=O)C2=C1N1CCc3ccccc3C1CC21[S+]([O-])CCS1(=O)=O (stereo partly shown); 6.15
O=C1CCCC2=C1C1(CC3c4ccccc4CCN23)SCCCS1 (stereo not shown); 5.51
CC1OC(=O)C2=C1N1CCc3ccccc3C1CC21SCCS1 (stereo not shown); 6.15
CC1(C)CC(=O)C2=C(C1)N1CCc3ccccc3C1CC21SCCS1 (stereo not shown); 6.22
O=C1CCCC2=C1C1(CC3c4ccccc4CCN23)SCCS1 (stereo not shown); 7.00

Q) Find the recorded pEC50 belonging to C[C@H]1OC(=O)C2=C1N1CCc3ccccc3C1CC2=O (stereo partly shown) and report it.
A) 5.00

Q) Find the recorded pEC50 belonging to CC1(C)CC(=O)C2=C(C1)N1CCc3ccccc3C1CC21SCCCS1 (stereo not shown) and report it.
A) 5.85
